Measured values drawn from ChEMBL document CHEMBL3885861 for this set.

- Species: Rattus norvegicus
- method-notes: Open TG-GATES - Regimen: Daily Repeat
- Format: toxicity, organism-based, Sprague-Dawley
- Design: regimen Daily Repeat, gender Male, age 6 weeks
- test-context: in vivo, po, 0 mg/kg, […], tissue Plasma, route gavage, dose level Control, time 14 day
Listing: IP of selected compounds
Reply with just the number (in mg/dL).

// solved cases for IP follow
1) CN(C)C(=N)N=C(N)N | 7.1
2) ClC(Cl)(Cl)Cl [CARBON TETRACHLORIDE] | 7.3
3) OCCOCCN1CCN(C(c2ccccc2)c2ccc(Cl)cc2)CC1 (stereo not given) [HYDROXYZINE] | 7.4

Reported IP of `O=NN(CCCl)C(=O)NC1CCCCC1` : 7.4

Reported IP of `CCC1(c2ccccc2)C(=O)NC(=O)NC1=O` : 8.4

Reported IP of CN(C)CCC=C1c2ccccc2COc2ccccc21 [DOXEPIN] : 7

###

Listing: APTT of selected compounds
- Species on record: Rattus norvegicus
- method-notes: Open TG-GATES - Regimen: Single
- Type: toxicity, organism-based, Sprague-Dawley
- Parameters: regimen Single, gender Male, age 6 weeks
- test-context: in vivo, po, 0 mg/kg, 3 h, tissue Blood, route gavage, dose level Control
Write the numeric value and append its unit.

// solved cases for APTT follow
1. CCC1(c2ccccc2)C(=O)NC(=O)NC1=O | 19.3 s
2. CCc1oc2ccccc2c1C(=O)c1cc(Br)c(O)c(Br)c1 | 17.3 s
3. O=NN(CCCl)C(=O)NC1CCCCC1 | 16.5 s

Reported APTT of `CN(C)C(=N)N=C(N)N` : 16.9 s

Reported APTT of ClC(Cl)(Cl)Cl [CARBON TETRACHLORIDE] : 16.7 s

Reported APTT of CN(C)CCC=C1c2ccccc2COc2ccccc21 [DOXEPIN] : 20.9 s

Reported APTT of CC(C)N(CCC(C(N)=O)(c1ccccc1)c1ccccn1)C(C)C (stereo not given) [DISOPYRAMIDE] : 21.7 s

Reported APTT of CC1=C(CC(=O)O)c2cc(F)ccc2/C1=C\c1ccc([S+](C)[O-])cc1 (stereo not given) : 20.8 s

Reported APTT of `CC[C@H]1[C@@H]2C[C@H]3[C@@H]4N(C)c5ccccc5[C@]45C[C@@H]([C@@H]2[C@H]5O)N3[C@@H]1O` : 16.6 s

Reported APTT of OCCOCCN1CCN(C(c2ccccc2)c2ccc(Cl)cc2)CC1 (stereo not given) [HYDROXYZINE] : 16.4 s

###

- Species: Rattus norvegicus
- method-notes: Open TG-GATES - Regimen: Daily Repeat
- Assay type: toxicity, organism-based, Sprague-Dawley
- Parameters: regimen Daily Repeat, gender Male, age 6 weeks
- test-context: in vivo, po, 0 mg/kg, 72 h, tissue Plasma, route gavage, dose level Control, time 3 day
endpoint: IP (mg/dL)
Reply with just the number (in mg/dL).

// solved cases for IP follow
1) CC(C)N(CCC(C(N)=O)(c1ccccc1)c1ccccn1)C(C)C (stereo not given) [DISOPYRAMIDE] | 7.5
2) OCCOCCN1CCN(C(c2ccccc2)c2ccc(Cl)cc2)CC1 (stereo not given) [HYDROXYZINE] | 8.1
3) CCC1(c2ccccc2)C(=O)NC(=O)NC1=O | 7.9
4) CN(C)C(=N)N=C(N)N | 8.5
5) CC[C@H]1[C@@H]2C[C@H]3[C@@H]4N(C)c5ccccc5[C@]45C[C@@H]([C@@H]2[C@H]5O)N3[C@@H]1O | 7.4
6) CN(C)CCC=C1c2ccccc2COc2ccccc21 [DOXEPIN] | 8

Reported IP of `CCc1oc2ccccc2c1C(=O)c1cc(Br)c(O)c(Br)c1` : 7.5

Reported IP of ClC(Cl)(Cl)Cl [CARBON TETRACHLORIDE] : 7.5

Reported IP of CC1=C(CC(=O)O)c2cc(F)ccc2/C1=C\c1ccc([S+](C)[O-])cc1 (stereo not given) : 7.5

Reported IP of `O=NN(CCCl)C(=O)NC1CCCCC1` : 8.5

###

- Organism: Rattus norvegicus
- method-notes: Open TG-GATES - Regimen: Daily Repeat
- Type: toxicity, organism-based, Sprague-Dawley
- Parameters: regimen Daily Repeat, gender Male, age 6 weeks
- test-context: in vivo, po, 0 mg/kg, […], tissue Plasma, route gavage, dose level Control, time 28 day
endpoint: gamma-GTP (IU/L)
Reply with just the number (in IU/L).

// solved cases for gamma-GTP follow
1. O=NN(CCCl)C(=O)NC1CCCCC1 [LOMUSTINE] | 1.8
2. CCCCc1oc2ccccc2c1C(=O)c1cc(I)c(OCCN(CC)CC)c(I)c1 [AMIODARONE] | 1
3. CC1=C(CC(=O)O)c2cc(F)ccc2/C1=C\c1ccc([S+](C)[O-])cc1 (stereo not given) | 1
4. CN(C)CCC=C1c2ccccc2COc2ccccc21 [DOXEPIN] | 1

Consider the record given below.
Reported gamma-GTP of CC(C)N(CCC(C(N)=O)(c1ccccc1)c1ccccn1)C(C)C (stereo not given) [DISOPYRAMIDE] : 2.2

###

Listing: Ht of selected compounds
- Species: Rattus norvegicus
- method-notes: Open TG-GATES - Regimen: Single
- Type: toxicity, organism-based, Sprague-Dawley
- Set-up: regimen Single, gender Male, age 6 weeks
- test-context: in vivo, po, 0 mg/kg, 9 h, tissue Blood, route gavage, dose level Control
Write the numeric value and append its unit.

1. CC[C@H]1[C@@H]2C[C@H]3[C@@H]4N(C)c5ccccc5[C@]45C[C@@H]([C@@H]2[C@H]5O)N3[C@@H]1O | 38.6%
2. CCc1oc2ccccc2c1C(=O)c1cc(Br)c(O)c(Br)c1 | 40.6%
3. CN(C)CCC=C1c2ccccc2COc2ccccc21 [DOXEPIN] | 39.9%
4. CC(C)N(CCC(C(N)=O)(c1ccccc1)c1ccccn1)C(C)C (centres undefined) [DISOPYRAMIDE] | 40%

Reported Ht of `CCC1(c2ccccc2)C(=O)NC(=O)NC1=O` : 37.9%

Reported Ht of OCCOCCN1CCN(C(c2ccccc2)c2ccc(Cl)cc2)CC1 (centres undefined) [HYDROXYZINE] : 39.9%

Reported Ht of CC1=C(CC(=O)O)c2cc(F)ccc2/C1=C\c1ccc([S+](C)[O-])cc1 (centres undefined) : 42.5%

Reported Ht of ClC(Cl)(Cl)Cl [CARBON TETRACHLORIDE] : 36.6%

Reported Ht of `O=NN(CCCl)C(=O)NC1CCCCC1` : 40.2%

###

Listing: RBC of selected molecules
- Species on record: Rattus norvegicus
- method-notes: Open TG-GATES - Regimen: Daily Repeat
- Type: toxicity, organism-based, Sprague-Dawley
- Design: regimen Daily Repeat, gender Male, age 6 weeks
- test-context: in vivo, po, 0 mg/kg, 72 h, tissue Blood, route gavage, dose level Control, time 3 day
Reply with just the number (in x10_4/ul).

// solved cases for RBC follow
1. CN(C)CCC=C1c2ccccc2COc2ccccc21 [DOXEPIN] | 625.6
2. CC(C)N(CCC(C(N)=O)(c1ccccc1)c1ccccn1)C(C)C (stereo unspecified) [DISOPYRAMIDE] | 617.8
3. OCCOCCN1CCN(C(c2ccccc2)c2ccc(Cl)cc2)CC1 (stereo unspecified) [HYDROXYZINE] | 610.4
4. O=NN(CCCl)C(=O)NC1CCCCC1 | 619.4
5. CCC1(c2ccccc2)C(=O)NC(=O)NC1=O | 589.6

Consider the record given below.
Reported RBC of `CCc1oc2ccccc2c1C(=O)c1cc(Br)c(O)c(Br)c1` : 645.6

###

Listing: TC of selected compounds
- Species on record: Rattus norvegicus
- method-notes: Open TG-GATES - Regimen: Daily Repeat
- Format: toxicity, organism-based, Sprague-Dawley
- Parameters: regimen Daily Repeat, gender Male, age 6 weeks
- test-context: in vivo, po, 0 mg/kg, […], tissue Plasma, route gavage, dose level Control, time 7 day
Reply with just the number (in mg/dL).

// solved cases for TC follow
1. OCCOCCN1CCN(C(c2ccccc2)c2ccc(Cl)cc2)CC1 (stereo not given) [HYDROXYZINE] | 84
2. CC[C@H]1[C@@H]2C[C@H]3[C@@H]4N(C)c5ccccc5[C@]45C[C@@H]([C@@H]2[C@H]5O)N3[C@@H]1O | 79.8
3. CCC1(c2ccccc2)C(=O)NC(=O)NC1=O | 73
4. CN(C)CCC=C1c2ccccc2COc2ccccc21 [DOXEPIN] | 85
5. ClC(Cl)(Cl)Cl [CARBON TETRACHLORIDE] | 81.8

Reported TC of `CCCCc1oc2ccccc2c1C(=O)c1cc(I)c(OCCN(CC)CC)c(I)c1` : 73.6

Reported TC of CC(C)N(CCC(C(N)=O)(c1ccccc1)c1ccccn1)C(C)C (stereo not given) [DISOPYRAMIDE] : 81.4

Reported TC of `O=NN(CCCl)C(=O)NC1CCCCC1` : 90

Reported TC of `CCc1oc2ccccc2c1C(=O)c1cc(Br)c(O)c(Br)c1` : 74.4

Reported TC of CC1=C(CC(=O)O)c2cc(F)ccc2/C1=C\c1ccc([S+](C)[O-])cc1 (stereo not given) : 94.2
